Test system: KM12
Experiment: NCI tumour cell line growth inhibition, 48 h
Activity calls are given as the source filed them. No stated cut-off is given here; in the data, active = GI50 up to about 1.1 µM and inactive = higher.
Permitted responses: active, inactive

Hi team, can someone confirm the assay call for COc1ccc2cccc(C(=O)c3ccc(C)c4c3CCC4)c2c1 ?
inactive

Here is the next compound: CCCCCCCCCCCCCCCCNc1ccc2c(c1)OCCOCCOCCOCCO2
inactive

Here is the next compound: CCCC(=O)Nc1cc(C(=O)N2C[C@H]3C[C@@]34C2=CC(=O)c2[nH]cc(C)c24)n(COC)c1
active

Here is the next compound: N=c1oc2cc(O)ccc2cc1C(=O)Nc1ccccn1
inactive

Here is the next compound: CC1(C)S[C@@H]2[C@H](NC(=O)CCC[C@@H](N)C(=O)O)C(=O)N2[C@H]1C(=O)O
inactive

Here is the next compound: CCOC(=O)COc1ccccc1/C=C1\CCC(CN(C)C)C1=O (stereo unspecified)
inactive

Here is the next compound: C=C(c1ccccc1)[C@@]1(O)CCCC[C@H]1NC(c1ccccc1)c1ccccc1
inactive

Here is the next compound: O=C(O)c1ccc(C(=O)Nc2cccc3ccccc23)c(C(=O)O)c1
inactive

Here is the next compound: O=C(Nc1ccccc1C(=O)NCc1ccccc1)/C(=C/c1ccccc1)NC(=O)c1ccccc1
inactive

Here is the next compound: CC(=O)N1CC(C)(C)c2c(C)c(O)c(C)c(C)c21
inactive

Here is the next compound: COc1ccc(-c2nc(-c3cc4ccccc4oc3=O)cs2)cc1
inactive

Here is the next compound: N#CCC(=O)Nn1c(CC#N)nnc1Cc1ccccc1
inactive

Here is the next compound: COC(=O)C(=O)C(CC(=O)Nc1cc(Cl)ccc1Cl)C(=O)OC (stereo unspecified)
inactive

Here is the next compound: COc1ccc(CCNCc2cccc(OC)c2OC)cc1OC
inactive

Here is the next compound: O=C(c1ccccc1)n1[nH]c(=O)n(-c2ccc(Cl)cc2)c1=O
inactive

Here is the next compound: CN(C)C(=O)O/N=C1/C(=C2/C(=O)Nc3ccccc32)Nc2ccccc21
active

Here is the next compound: COc1ccc(C(=O)C(C(=O)C(=O)NCCCNC(=O)C(=O)C(C(=O)c2ccc(OC)cc2)c2ccc(OC)cc2)c2ccc(OC)cc2)cc1 (stereo unspecified)
inactive

Here is the next compound: O[C@@H]1CCC[C@@H]2NC[C@@H](c3ccc4c(c3)OCO4)[C@H]12
inactive

Here is the next compound: CC1=CC=CC(C)(C)CC1(O[Si](C)(C)C)C(F)(F)F (stereo unspecified)
inactive

Here is the next compound: c1ccc(C(=NNc2cnc3ccccc3n2)c2ccccn2)cc1
inactive

Here is the next compound: Nc1nc(Cl)c(N)c(NCC2(CO)CCC(CCc3ccccc3)C2)n1 (stereo unspecified)
inactive
